- target system: T1, human IL-12Rβ2 expressed on cells (human, UniProt Q99665 24-862)
- T1 sequence: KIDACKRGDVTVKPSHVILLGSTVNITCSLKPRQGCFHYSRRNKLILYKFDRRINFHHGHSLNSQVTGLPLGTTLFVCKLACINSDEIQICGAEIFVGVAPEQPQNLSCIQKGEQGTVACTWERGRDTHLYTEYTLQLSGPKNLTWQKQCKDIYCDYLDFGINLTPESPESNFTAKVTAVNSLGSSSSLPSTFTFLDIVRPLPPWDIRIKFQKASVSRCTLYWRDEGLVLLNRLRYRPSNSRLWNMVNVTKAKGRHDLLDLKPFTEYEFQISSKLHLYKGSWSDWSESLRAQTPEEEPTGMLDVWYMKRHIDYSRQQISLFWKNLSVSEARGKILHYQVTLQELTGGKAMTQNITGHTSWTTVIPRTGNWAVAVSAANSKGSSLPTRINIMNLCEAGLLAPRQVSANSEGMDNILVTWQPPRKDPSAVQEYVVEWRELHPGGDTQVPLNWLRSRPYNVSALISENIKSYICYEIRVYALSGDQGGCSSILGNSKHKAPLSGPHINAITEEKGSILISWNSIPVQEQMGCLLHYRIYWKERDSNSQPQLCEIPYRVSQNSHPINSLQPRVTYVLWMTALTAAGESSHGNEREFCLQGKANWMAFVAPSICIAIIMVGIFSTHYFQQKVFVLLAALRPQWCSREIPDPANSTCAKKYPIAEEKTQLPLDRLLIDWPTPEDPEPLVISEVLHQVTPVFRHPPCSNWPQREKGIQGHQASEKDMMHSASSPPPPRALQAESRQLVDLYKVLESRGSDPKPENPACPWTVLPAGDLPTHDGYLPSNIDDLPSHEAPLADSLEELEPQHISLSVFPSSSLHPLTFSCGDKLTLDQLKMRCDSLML
- assay explanation: cell-based or functional assay
reported property: % Specific Cell Lysis at 0.025 ug/mL (%)
Your answer is read as %, so omit the unit and give the number.

Worked examples, 6 binders total:
binder	unit spec	measured result
anti-IL-12Rβ2-VHH-FcDE clone 20407 (Fc fusion) QVQLQESGGGLVQPGGSLRLTCVASGFPFSTHAMSWVRQPPGKGREWISAINSGGDSTDYADSVMGRFTISRDNAKNTVYLQMNSLKSEDTAAYYCAKYEDCSDYDCSSRASWGQGTQVTVSSAPELLGGPDVFLFPPKPKDTLMISRTPEVTCVVVDVSHEDPEVKFNWYVDGVEVHNAKTKPREEQYNSTYRVVSVLTVLHQDWLNGKEYKCKVSNKALPAPEEKTISKAKGQPREPQVYTLPPSRDELTKNQVSLTCLVKGFYPSDIAVEWESNGQPENNYKTTPPVLDSDGSFFLYSKLTVDKSRWQQGNVFSCSVMHEALHNHYTQKSLSLSPGK	%	66.5
20394-FcDE (Fc fusion) VHH-Fc chain: QVQLQESGGGLVQAGDSLRLSCAASGRTFDTYIVGWFRQAPGKEREFVSALSWSDDTTIRDDSLRGRFTISRDNAKNTVYLLMNSLKPEDTAVYYCAAKAKPPAATWSSYRNREWYDYWGQGTQVTVSSAPELLGGPDVFLFPPKPKDTLMISRTPEVTCVVVDVSHEDPEVKFNWYVDGVEVHNAKTKPREEQYNSTYRVVSVLTVLHQDWLNGKEYKCKVSNKALPAPEEKTISKAKGQPREPQVYTLPPSRDELTKNQVSLTCLVKGFYPSDIAVEWESNGQPENNYKTTPPVLDSDGSFFLYSKLTVDKSRWQQGNVFSCSVMHEALHNHYTQKSLSLSPGK	%	52.1
anti-IL-12Rβ2-VHH-FcDE clone 21060 (Fc fusion) QVQLQESGGGLVQAGGSLSLSCAASGSAFRLNFMGWYRQAPGKQRELVAAINSGGTEIYHDSVKGRFTISRDNADSTVWLQMNSLKPDDTAVYYCAADRGISWSKLAGGMDYWGKGTQVTVSSAPELLGGPDVFLFPPKPKDTLMISRTPEVTCVVVDVSHEDPEVKFNWYVDGVEVHNAKTKPREEQYNSTYRVVSVLTVLHQDWLNGKEYKCKVSNKALPAPEEKTISKAKGQPREPQVYTLPPSRDELTKNQVSLTCLVKGFYPSDIAVEWESNGQPENNYKTTPPVLDSDGSFFLYSKLTVDKSRWQQGNVFSCSVMHEALHNHYTQKSLSLSPGK	%	63.9
20415-FcDE (Fc fusion) VHH-Fc chain: QVQLQESGGGLVQPGGSLRLSCTASGSIVSIYNMDWYRQAPGNEREWVASITSSGDPYYDGSAKGRFTISRDNAKMTVYLQMNSLKPEDTAVYYCKVPTEKGNYWGQGTQVTVSSAPELLGGPDVFLFPPKPKDTLMISRTPEVTCVVVDVSHEDPEVKFNWYVDGVEVHNAKTKPREEQYNSTYRVVSVLTVLHQDWLNGKEYKCKVSNKALPAPEEKTISKAKGQPREPQVYTLPPSRDELTKNQVSLTCLVKGFYPSDIAVEWESNGQPENNYKTTPPVLDSDGSFFLYSKLTVDKSRWQQGNVFSCSVMHEALHNHYTQKSLSLSPGK	%	61.1
20373-FcDE (Fc fusion) VHH-Fc chain: QVQLQESGGGLVQAGGSLVLSCAASGSAALIFLMSWYRQAPGKQRELVAEVSRGGSTTYADSVEGRFTISRDNAKNIVDLQMNSLKPEDTAVYYCKADQNYGDSLRSSWGQGTQVTVSSAPELLGGPDVFLFPPKPKDTLMISRTPEVTCVVVDVSHEDPEVKFNWYVDGVEVHNAKTKPREEQYNSTYRVVSVLTVLHQDWLNGKEYKCKVSNKALPAPEEKTISKAKGQPREPQVYTLPPSRDELTKNQVSLTCLVKGFYPSDIAVEWESNGQPENNYKTTPPVLDSDGSFFLYSKLTVDKSRWQQGNVFSCSVMHEALHNHYTQKSLSLSPGK	%	61.1
20399-FcDE (Fc fusion) VHH-Fc chain: QVQLQESGGGLVQPGGSLRLSCAASGSILRINLMGWYRQVPGKQRELVAEMSTGGSTTYVDSVEGRFTISRDNAKNTVYLQMNSLKPEDTAVYYCNAKAWQLGRLENDDWGQGTQVTVSSAPELLGGPDVFLFPPKPKDTLMISRTPEVTCVVVDVSHEDPEVKFNWYVDGVEVHNAKTKPREEQYNSTYRVVSVLTVLHQDWLNGKEYKCKVSNKALPAPEEKTISKAKGQPREPQVYTLPPSRDELTKNQVSLTCLVKGFYPSDIAVEWESNGQPENNYKTTPPVLDSDGSFFLYSKLTVDKSRWQQGNVFSCSVMHEALHNHYTQKSLSLSPGK	%	63.1

QUERY: For the binder shown here, 20400-FcDE (Fc fusion) VHH-Fc chain: QVQLQESGGGLVQPGGSLRLSCAASGRTINAYIMGWFRQAPGKEREFVAAVSGSGGSTYYADSVKGRFTISRDNAKNTVNLQMDNLRSEDTDVYYCAATYESVYLQNPGQYDYWGQGTQVTVSSAPELLGGPDVFLFPPKPKDTLMISRTPEVTCVVVDVSHEDPEVKFNWYVDGVEVHNAKTKPREEQYNSTYRVVSVLTVLHQDWLNGKEYKCKVSNKALPAPEEKTISKAKGQPREPQVYTLPPSRDELTKNQVSLTCLVKGFYPSDIAVEWESNGQPENNYKTTPPVLDSDGSFFLYSKLTVDKSRWQQGNVFSCSVMHEALHNHYTQKSLSLSPGK , give the reported % Specific Cell Lysis at 0.025 ug/mL.
RESULT: 47.6

QUERY: And what about the binder anti-IL-12Rβ2-VHH-Fc clone 20432 with a wildtype IgG1 Fc sequence (Fc fusion) QVQLQESGGGLVQPGGSLRLSCAASGFTFSTSGMHWFRQAPGKGLEWVSSIGATVDNSYYASSVKGRFTISRDNAKNTLYLLMNSLKSEDTAVYYCSKDPTGSSRGQGTQVTVSSAPELLGGPSVFLFPPKPKDTLMISRTPEVTCVVVDVSHEDPEVKFNWYVDGVEVHNAKTKPREEQYNSTYRVVSVLTVLHQDWLNGKEYKCKVSNKALPAPIEKTISKAKGQPREPQVYTLPPSRDELTKNQVSLTCLVKGFYPSDIAVEWESNGQPENNYKTTPPVLDSDGSFFLYSKLTVDKSRWQQGNVFSCSVMHEALHNHYTQKSLSLSPGK ?
RESULT: 54.3
